Recorded inhibition for the following compounds
assay.procedure: endothelial E-selectin expression blockers – imaging, HUVEC, immunofluorescence, MLSMR starter and 10KST1 sets, primary screen (AID 487);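 further: signal is fraction of cell area covered by stained E-selectin grains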
applied.conditions: HUVEC TNFalpha-induced E-selectin immunofluorescence imaging, at 2 µM; active compounds read high

compound: CCOC(=O)C1=C(C)N(C)C(=O)NC1c1cccc(O)c1 (stereo not drawn)
scale.unit: %
inhibition: -43.5
//
compound: Cc1ccc(-n2c(-c3ccncc3)nnc2-c2cccs2)cc1
scale.unit: %
inhibition: -55.2
//
compound: O=C(CN1CCCC1)Nc1ccc(NC(=O)Nc2ccccc2)cc1
scale.unit: %
inhibition: -132
//
compound: CCOC(=O)c1cc(NC(=O)SCC(=O)O)c(C)nc1C
scale.unit: %
inhibition: -99.8
//
compound: COCCNC(=O)CN(C)S(=O)(=O)c1ccc(Br)cc1
scale.unit: %
inhibition: 24.8
//
compound: CC(=O)Nc1c(O)nc(SCC(=O)Nc2nnc(CC(C)C)s2)[nH]c1=O
scale.unit: %
inhibition: -41
//
compound: CCOC(=O)C1=C(C)NC(C)=C(C(=O)OCC)C1c1cc(N)ccc1OC(F)F
scale.unit: %
inhibition: -12.2
//
compound: COC(=O)c1cccc(Oc2nc3c(c(=O)n(C)c(=O)n3C)n2C(C)C)c1
scale.unit: %
inhibition: -55.6
//
compound: Cn1c(SCc2c(F)cccc2Cl)nnc1-c1cccs1
scale.unit: %
inhibition: -9.9
//
compound: COc1ccc(-n2c(Cc3cccn3C)nnc2SCC(=O)Nc2cccc(C)c2C)cc1
scale.unit: %
inhibition: -26.4
//
compound: CCOC(=O)N1CCC(NC(=O)c2cc3c(=O)n(C)c4ccccc4c3n2C)CC1
scale.unit: %
inhibition: -50.1
//
compound: CC(=O)Nc1cccc(OCC(O)Cn2cnc3ccccc32)c1 (stereo not drawn)
scale.unit: %
inhibition: -23.9
//
compound: Cc1nc(NC(=O)c2csc3ccccc23)sc1C
scale.unit: %
inhibition: -38.1
//
compound: O=C1C(Cl)=C(N2CCOCC2)C(=O)N1CCc1ccccc1
scale.unit: %
inhibition: -20.9
//
compound: COc1nnc(-c2ccc(C)c(S(=O)(=O)NCCO)c2)c2ccccc12
scale.unit: %
inhibition: -17.6
//
compound: Cc1cc(NC(=O)COc2cccc(C)c2C)no1
scale.unit: %
inhibition: -16.6
//
compound: COc1ccc(-c2noc(CN(C(=O)C(C)(C)C)C(C)C)n2)cc1
scale.unit: %
inhibition: -73
//
compound: Nn1c(SCC(=O)NC2CCCCC2)nnc1-c1ccc(Cl)cc1
scale.unit: %
inhibition: -114
//
compound: Cc1c2cnn(CC(=O)N3CCN(c4ncccn4)CC3)c(=O)c2c(C)n1Cc1ccc(F)cc1
scale.unit: %
inhibition: -130
//
compound: CCc1c(C(=O)N2CCOCC2)csc1C
scale.unit: %
inhibition: -4.5
//
compound: Cc1c(NC2=NC3(CCCCC3)Cc3ccccc32)c(=O)n(-c2ccccc2)n1C
scale.unit: %
inhibition: 59.1
//
compound: COc1cc(C2c3c(n[nH]c3C)C(=O)N2c2ccc(Br)cc2)ccc1O (stereo not drawn)
scale.unit: %
inhibition: 3.2
//
compound: C/C(N)=C(/C#N)C(=O)CSc1nnc(Nc2cccc(C)c2)s1
scale.unit: %
inhibition: -79.4
